assay.text: NCI Yeast Anticancer Drug Screen. Data for the mec2-1 strain (AID 157)
applied.conditions: S. cerevisiae mec2-1 strain, at 100.0 µM, active compounds read high
The panel holds about 79,000 compounds, 15% with a hit somewhere; the sample as a whole holds those more often.
Outcome: 1.0 for growth inhibition of at least 80%; 0.0 for anything lower.

compound	class
CCOC(=O)C#Cc1ccc([N+](=O)[O-])cc1	0.0
CC(=O)OCC(C)Cc1cc2c(cc1Br)OCO2 (centres undefined)	0.0
CCCCN(CCCC)CCC(O)c1cc2c(Cl)cc(Cl)cc2c2cc(C(F)(F)F)ccc12 (centres undefined)	1.0
CCc1c(Cl)c(C)cc(O)c1Cl	1.0
Nc1ncc(-c2ccc(Br)cc2)s1	1.0
CC(C)(C)C1=CC(=CC=C2C=CN(CCCCCCCCCCCO)C=C2)C=C(C(C)(C)C)C1=O	1.0
Cc1c(-c2ccccn2)ccc2ccccc12	0.0
O=C(O)c1ccc(N2C(=O)C=CC2=O)cc1	0.0
NNC(=O)CCc1cc2ccccc2c2ccccc12	1.0
COC(=O)CCC(NC(=S)N/N=C(\C)c1ccccn1)C(=O)OC (centres undefined)	1.0
CCOC(=O)CC1(C(=O)OCC)c2[nH]c3ccccc3c2CCN1Cc1ccccc1 (centres undefined)	0.0
Cc1ccc(Cl)cc1NC(=O)OCCN(C)C(=O)Nc1cc(Cl)ccc1C	0.0
CNC(=O)OCc1c(COC(=O)NC)c(-c2ccc(Cl)cc2)n2c1CCC2	1.0
Cc1ccc(NC(c2ccccc2)c2ccc3cccnc3c2O)cc1 (centres undefined)	0.0
C[Si](C)(C)/C=C/CCNC(C#N)c1ccccc1 (centres undefined)	1.0
CN(C)c1nc(=Nc2cccc(Cl)c2)ss1	1.0
OCc1ccccc1Cc1ccccc1	0.0
Cc1ccc([N+]2=NC(c3ccccc3)=NN(c3ccccc3)C2)cc1	1.0
CCCCC/C(=C(\C#N)C(=O)OCC)c1ccccc1	0.0
CCN(CC)Cc1cc(Nc2c3ccccc3nc3c2[nH]c2ccccc23)cc(CN(CC)CC)c1O	0.0
CCOc1c(N=Nc2ccccc2OC)c(C)nn1C(=S)S	0.0
Brc1ccccc1-c1ncc(-c2ccccc2)o1	0.0
CC(=O)ON=C1C=CC(=C(C#N)c2ccc(Cl)cc2)C=C1	0.0
O=C1Nc2ccccc2/C1=C/c1ccccc1	0.0
CN(C)CCNc1ccc2ncnc3c2c1C(=O)c1ccccc1-3	0.0
COc1ccc(/C=C2\NC(=S)N(/C=C3\C(=O)Oc4ccccc4C3=O)C2=O)cc1	0.0
NC(N)=NS(=O)(=O)c1ccc(Nc2c3ccccc3nc3c(C(=O)NCCO)cccc23)cc1	0.0
CN(C)c1ccc(C2CC(C)(O)Oc3cc4c(cc32)OCO4)cc1 (centres undefined)	0.0
Cc1cccc2c1nc1ccc(Cl)cc1[n+]2C	1.0
S=C1SCN(C2CCCCC2)CN1C1CCCCC1	0.0
COC(=O)/C=C(/C(=O)OC)C(Cl)(Cl)Cl	1.0
CC(C)(CCCCC(C)(C)[N+](C)(C)C)[N+](C)(C)C	0.0
CN(C)Cc1cc(N=Nc2ccc(Cl)cc2)ccc1OC(=O)c1ccccc1	0.0
COc1ccc(/C=C/c2sc3ccccc3[n+]2CCCCI)cc1OC	1.0
CCC(=O)c1cc(C(=O)C(=S)SC)cc(C(=O)C(=S)SC)c1	1.0
COC(=O)Nc1cn2ccc(C(Cl)=C(Cl)Cl)cc2n1	0.0
CN(C)N=Nc1ccccc1C(=O)NC#N	1.0
COc1nc2c(c(=O)n1C)N=C(c1ccccc1)[C@H](C(CC(=O)c1ccccc1)c1ccccc1)C(c1ccccc1)N2 (some centres undefined)	0.0
N#CC(=Nc1ccccc1F)Nc1ccccc1F	0.0
O=C1C=C(N2CCN(c3ccccn3)CC2)C(=O)c2c(O)ccc(O)c21	0.0
S=c1sc2c(s1)SCCS2	0.0
Clc1ccc2c(c1)N(CCCN1CCCC13CCCCC3)c1ccccc1S2	0.0
CCOC(=O)C(Br)C(Br)c1ccccc1Cl (centres undefined)	1.0
O=C1NC(=O)c2ccc([N+](=O)[O-])c3cccc1c23	0.0
COc1cc(O)c(O)c(C(C)(C)C)c1	0.0
OC(CCNCc1ccccc1)c1ccc2ccccc2c1 (centres undefined)	0.0
O=C(NCCCl)Sc1ccc(Cl)cc1	1.0
Cc1c(C)c(C)c(CSC(=N)N)c(C)c1C	1.0
